The values you see were collected from PubChem BioAssay.

- assay_name: binders from COS7 lysate, DM2A8 probe, primary screen, torsin A project, cell lysate, small-molecule microarray, fluorescence 635/667 (AID 1065)
- condition_context: higher = more signal, COS7 lysate expressing mutant human TOR1A
Listed here: items and their measured composite z-score.
Could you keep your reply to the number by itself?

Some solved entries appear below for comparison.
CC(C)C(=C=CC[C@H](O)c1ccc(CO)o1)CCO = 1.5
CCN(CC)c1ccc(N2CC=CC34O[C@@H]5C=CCOC(=O)[C@@H]5[C@H]3C(=O)N(CCCCCCO)[C@@H]4C2=O)cc1 (stereo not given in full) = 0.19
CC(=O)Nc1cc(Br)ccc1C(=O)NCc1ccccc1 = -0.0459
C=CC[C@]1(C(N)=O)COC(c2ccc(OCCCO)cc2)=N1 = 0.38
COCCOC(=O)N1C(=O)[C@@]2(c3cc(C#CC4=CCCCC4)ccc31)[C@H](c1ccc(OCCO)cc1)N1[C@H](c3ccccc3)[C@H](c3ccccc3)OC(=O)[C@H]1[C@@H]2C(=O)N1CCc2cc(OC)c(OC)cc2C1 = 0.36

Please examine the following record next.
Returns the measured composite z-score for the input compound. Input: CC(CO)N1C(=O)[C@@H]2C3C(=O)OCCC/C=C\[C@H]3OC23C=CCN(CCN2CCOCC2)C(=O)[C@@H]13 (stereo not given in full)
0.163

* * *

- assay_name: resazurin metabolic signal in A549 cells – cell-based, resazurin fluorescence, 24 h, PK04 Diversity Set, profiling panel (AID 1171); further: test concentration not given here
- condition_context: A549 viability, higher = more signal, called active from +8 up or from −8 down
# note: boundary value -0.1 maps to condition not met; z-score below it maps to condition met

Study these solved cases before continuing.
NCCCCCCNC(=O)[C@H]1C[C@H]2C(=O)N[C@@H](Cc3ccccc3)C(=O)N2[C@H]1c1cccc(OCCO)c1 = condition not met
C[N+](C)(C)CCCC[C@@H]1NC(=O)[C@H]2C[C@@H](C(=O)NCCCCCCNC(=O)CS)[C@@H](c3ccc(O)cc3)N2C1=O = condition met
NC(=O)N1C(=O)C2C(C1=O)C1C=C(CCCO)C2C(C2CC2)N1Cc1cc2c(cc1Br)OCO2 (stereo not given) = condition met
C=CC[C@]12N=C(c3ccc(OCCCO)cc3)O[C@H]1c1ccccc1N(CCS(=O)(=O)c1ccccc1)C2=O = condition met
COc1ccc([Si](C)(C)[C@@H]2[C@@H](CC(=O)N3Cc4ccccc4C[C@H]3CO)O[C@]3(C(=O)N(Cc4cccc(N5CCC5=O)c4)c4ccccc43)[C@H]2C)cc1 = condition met
O=C1C2C=CC(C(O)C=Cc3ccc([N+](=O)[O-])cc3)N(Nc3ccccc3F)C2C(=O)N1c1ccccc1 (stereo not given) = condition not met

Lab note: confirm whether the reported z-score for this compound is below -0.1, equality not counting. compound: COC(=O)[C@@]1(Cc2ccc(OC)cc2)[C@H]2c3cc(C(=O)N4CCCC4)n(CCCNc4ncc(C(F)(F)F)cc4Cl)c3C[C@H]2CN1C(=O)c1ccccc1
condition met

Param item: COCCOC(=O)N1C(=O)[C@@]2(c3cc(C#CC4=CCCCC4)ccc31)[C@H](c1ccc(OCCO)cc1)N1[C@H](c3ccccc3)[C@H](c3ccccc3)OC(=O)[C@H]1[C@@H]2C(=O)N1CCc2cc(OC)c(OC)cc2C1
condition met

Param item: O=C1C2C=CC(C(O)C=Cc3ccc([N+](=O)[O-])cc3)N(n3cnnc3)C2C(=O)N1Cc1ccccc1 (stereo not given)
condition not met

Param item: CCCCC(=C=CC[C@@H](O)c1cccc(OCCO)c1)C[C@@H](O)c1ccccn1
condition not met

Param item: O=c1cccc(-c2ccccc2Cl)o1
condition not met

Param item: CCN(CC)c1ccc(N2CC=CC34O[C@@H]5/C=C\CCC(C)OC(=O)C5[C@H]3C(=O)N(CCCCCO)[C@@H]4C2=O)cc1 (stereo not given in full)
condition not met

Param item: O=C(O)[C@H](Cc1ccccc1)n1cc(-c2ccccc2)nn1
condition met

Param item: CCOc1ccc(N2C(=O)CSC2c2cccc([N+](=O)[O-])c2)cc1 (stereo not given)
condition not met

Param item: CCOC(=O)C1=C[C@@H](C(C)C)N(S(=O)(=O)c2ccc(C)cc2)[C@H]1c1ccccc1F
condition not met

Param item: Cc1ccc(/C=C/C=O)cc1
condition met

Param item: C=CCOC(=O)[C@H]1[C@@H]2C(=O)O[C@@H](c3ccccc3)[C@@H](c3ccccc3)N2[C@@H](c2ccc(OCCOC(=O)[C@@H]3C[C@@H]4C(=O)N5CCC[C@H]5C(=O)N4[C@@H]3c3cccc(OCCO)c3)cc2)[C@]12C(=O)Nc1ccc(I)cc12
condition met

Param item: C=CCOC(=O)[C@H]1[C@@H]2C(=O)O[C@@H](c3ccccc3)[C@@H](c3ccccc3)N2[C@@H](c2ccc(OCCOC(=O)[C@H]3C[C@H]4C(=O)N[C@@H](CCCCN(C)C)C(=O)N4[C@H]3c3cccc(OCCO)c3)cc2)[C@]12C(=O)Nc1ccc(I)cc12
condition not met

Param item: CC(C)[Si](C#C[Si](C(C)C)(C(C)C)C(C)C)(O[C@H](C)c1cn(Cc2ccccc2)nn1)C(C)C
condition not met

Param item: COC(=O)c1c2oc(c1C(=O)OC)C(=O)NC1(CCCCC1)c1cn(nn1)C[C@H](Cc1ccccc1)NC(=O)N[C@H](CO)CC2
condition not met
